The reported numbers originate from BindingDB's records for doi:10.1111/j.1747-0285.2008.00638.x.

- systemUnderTest: Epidermal growth factor receptor (Homo sapiens)
- Sequence (P00533 whole entry): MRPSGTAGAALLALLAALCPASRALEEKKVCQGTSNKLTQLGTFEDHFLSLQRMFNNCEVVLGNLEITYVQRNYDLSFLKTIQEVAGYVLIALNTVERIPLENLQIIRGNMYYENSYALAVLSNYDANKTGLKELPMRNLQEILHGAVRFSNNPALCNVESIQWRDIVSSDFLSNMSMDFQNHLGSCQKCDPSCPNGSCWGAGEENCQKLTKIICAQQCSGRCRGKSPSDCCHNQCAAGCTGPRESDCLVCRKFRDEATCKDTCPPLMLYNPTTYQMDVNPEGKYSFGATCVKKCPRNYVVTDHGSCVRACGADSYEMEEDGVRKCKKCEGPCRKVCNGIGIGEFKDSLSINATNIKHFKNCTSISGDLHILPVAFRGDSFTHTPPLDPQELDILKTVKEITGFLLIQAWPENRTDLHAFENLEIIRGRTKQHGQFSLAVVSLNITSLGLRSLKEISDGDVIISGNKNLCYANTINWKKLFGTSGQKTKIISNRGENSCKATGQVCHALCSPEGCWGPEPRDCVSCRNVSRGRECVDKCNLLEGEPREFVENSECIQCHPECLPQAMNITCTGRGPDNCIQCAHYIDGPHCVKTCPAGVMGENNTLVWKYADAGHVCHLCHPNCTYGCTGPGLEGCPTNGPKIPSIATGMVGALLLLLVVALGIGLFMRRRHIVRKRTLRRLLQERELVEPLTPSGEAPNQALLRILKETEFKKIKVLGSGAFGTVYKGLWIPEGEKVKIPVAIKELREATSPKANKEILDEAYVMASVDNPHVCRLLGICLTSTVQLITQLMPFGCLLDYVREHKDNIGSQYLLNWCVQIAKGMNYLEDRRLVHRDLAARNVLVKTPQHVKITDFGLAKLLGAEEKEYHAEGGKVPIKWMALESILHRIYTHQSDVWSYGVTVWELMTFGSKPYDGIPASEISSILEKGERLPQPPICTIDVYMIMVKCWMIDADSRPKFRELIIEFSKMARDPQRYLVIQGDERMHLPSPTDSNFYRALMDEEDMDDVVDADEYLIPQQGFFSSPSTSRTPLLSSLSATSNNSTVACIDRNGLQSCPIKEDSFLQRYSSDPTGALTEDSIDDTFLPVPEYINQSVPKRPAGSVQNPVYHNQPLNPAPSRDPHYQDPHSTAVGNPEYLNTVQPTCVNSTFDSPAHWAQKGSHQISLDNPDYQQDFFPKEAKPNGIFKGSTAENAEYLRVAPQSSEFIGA
experimentalReadout: IC50 (nM)
Provide the reading as a plain figure in nM.

Reported Epidermal growth factor receptor (Homo sapiens) IC50 for item "Cc1cccc(Nc2ncnc3ccc(/N=N/N(C)CCN(CCN4CCOCC4)CCN(C)/N=N/c4ccc5ncnc(Nc6cccc(C)c6)c5c4)cc23)c1" was 950
